# tested_system: Carbonic anhydrase 7 (Homo sapiens)
# Sequence (P43166 whole entry): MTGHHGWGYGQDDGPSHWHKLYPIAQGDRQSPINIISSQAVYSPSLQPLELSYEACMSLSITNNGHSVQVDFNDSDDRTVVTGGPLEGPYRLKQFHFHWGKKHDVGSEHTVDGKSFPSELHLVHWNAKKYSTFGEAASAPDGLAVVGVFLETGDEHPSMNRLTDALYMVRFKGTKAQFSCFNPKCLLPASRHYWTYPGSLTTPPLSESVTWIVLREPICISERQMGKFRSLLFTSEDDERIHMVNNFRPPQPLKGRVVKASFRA
measurement_label: Ki (nM)
One number for each entry, in nM.

Which value of Ki has been reported for C=CCN1CCCC1CNC(=O)c1cc(S(N)(=O)=O)cc(OC)c1OC (stereo unspecified) [VERALIPRIDE] in the records?
978

====

# tested_system: Carbonic anhydrase 9 (Homo sapiens, UniProt Q16790)
measurement_label: Ki
Please give the number followed by its unit.

Which value of Ki has been reported for C=CCN1CCCC1CNC(=O)c1cc(S(N)(=O)=O)cc(OC)c1OC (stereo unspecified) [VERALIPRIDE] in the records?
31.1 nM

====

# tested_system: UniProt O43570
# Sequence (O43570 whole entry): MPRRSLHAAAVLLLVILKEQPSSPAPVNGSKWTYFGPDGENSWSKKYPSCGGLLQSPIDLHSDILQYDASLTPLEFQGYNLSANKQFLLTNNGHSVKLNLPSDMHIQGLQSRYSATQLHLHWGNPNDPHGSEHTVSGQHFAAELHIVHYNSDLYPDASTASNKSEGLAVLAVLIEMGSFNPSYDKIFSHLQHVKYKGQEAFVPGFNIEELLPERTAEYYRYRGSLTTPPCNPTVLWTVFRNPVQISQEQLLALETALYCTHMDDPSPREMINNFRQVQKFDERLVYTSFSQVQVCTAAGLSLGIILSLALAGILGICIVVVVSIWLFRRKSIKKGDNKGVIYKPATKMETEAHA
measurement_label: Ki
Please give the number followed by its unit.

Which value of Ki has been reported for C=CCN1CCCC1CNC(=O)c1cc(S(N)(=O)=O)cc(OC)c1OC (stereo unspecified) [VERALIPRIDE] in the records?
23.9 nM

====

# tested_system: Carbonic anhydrase 1 (Homo sapiens, UniProt P00915)
# Sequence (P00915 whole entry): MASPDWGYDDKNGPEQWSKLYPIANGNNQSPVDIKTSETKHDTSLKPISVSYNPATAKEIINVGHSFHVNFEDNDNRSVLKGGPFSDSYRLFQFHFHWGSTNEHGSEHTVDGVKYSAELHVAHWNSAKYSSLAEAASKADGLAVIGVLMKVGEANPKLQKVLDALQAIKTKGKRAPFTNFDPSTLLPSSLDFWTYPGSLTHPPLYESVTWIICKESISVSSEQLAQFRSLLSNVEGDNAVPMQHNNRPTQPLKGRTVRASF
measurement_label: Ki (nM)
Give bare numbers, in nM.

Which value of Ki has been reported for C=CCN1CCCC1CNC(=O)c1cc(S(N)(=O)=O)cc(OC)c1OC (stereo unspecified) [VERALIPRIDE] in the records?
2720
